Molecular target: T1, hMC1-R (human, UniProt Q01726 1-317)
T1 construct: whole, on cells; Assayed as membranes of CHO-K1 cells expressing the receptor; also called hMC-R receptor subtype 1; melanocyte-specific receptor (MC1-R)
T1 sequence (Q01726 whole entry): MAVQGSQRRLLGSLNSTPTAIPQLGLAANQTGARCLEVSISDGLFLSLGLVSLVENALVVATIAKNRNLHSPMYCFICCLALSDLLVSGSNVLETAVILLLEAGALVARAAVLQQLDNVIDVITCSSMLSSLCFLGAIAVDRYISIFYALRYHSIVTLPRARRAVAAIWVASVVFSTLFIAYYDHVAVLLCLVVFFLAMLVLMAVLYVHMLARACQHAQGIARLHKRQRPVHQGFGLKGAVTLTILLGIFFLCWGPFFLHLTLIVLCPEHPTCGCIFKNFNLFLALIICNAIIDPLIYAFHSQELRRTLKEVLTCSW
Assay: competition with [125I]-NDP-α-MSH, CHO-K1 membranes
pKi: −log10 of the molar value. Bridge positions count the residues as written; N and C are the ends. Square brackets hold non-standard residues; d marks the D form. Ends that are not written are not given here. hCha = N[C@@H](CCC1CCCCC1)C(=O)O; Pen = CC(C)(S)[C@H](N)C(=O)O; Nle = CCCC[C@H](N)C(=O)O; GABA = NCCCC(=O)O

- binder: "Ac-CEH[dF]RWAC-NH2 (disulfide 1-8; SMILES CC(=O)N[C@H]1CSSC[C@@H](C(N)=O)NC(=O)[C@H](C)NC(=O)[C@H](Cc2c[nH]c3ccccc23)NC(=O)[C@H](CCCNC(=N)N)NC(=O)[C@@H](Cc2ccccc2)NC(=O)[C@H](Cc2c[nH]cn2)NC(=O)[C@H](CCC(=O)O)NC1=O) [Ac-c(Cys-Glu-His-D-Phe-Arg-Trp-Ala-Cys)-NH2]"
  pKi: 6.95
- binder: "Ac-[hCha]DH[dF]RW[GABA]K-NH2 (lactam 2-8; SMILES CC(=O)N[C@@H](CCC1CCCCC1)C(=O)N[C@H]1CC(=O)NCCCC[C@@H](C(N)=O)NC(=O)CCCNC(=O)[C@H](Cc2c[nH]c3ccccc23)NC(=O)[C@H](CCCNC(=N)N)NC(=O)[C@@H](Cc2ccccc2)NC(=O)[C@H](Cc2c[nH]cn2)NC1=O) [Ac-hCha-c(Asp-His-D-Phe-Arg-Trp-Gaba-Lys)-NH2]"
  pKi: 9.14
- binder: "[Nle]CH[dF]RW[GABA]C-NH2 (disulfide 2-8) [Nle-c(Cys-His-D-Phe-Arg-Trp-Gaba-Cys)-NH2]"
  pKi: 10.30
- binder: "Ac-[Nle][Pen]H[dF]RW[GABA][Pen]-NH2 (disulfide 2-8) [Ac-Nle-c(Pen-His-D-Phe-Arg-Trp-Gaba-Pen)-NH2]"
  pKi: 9.13

Values from patent US20120135923A1
